Biological target: human UGT1A9*2 (Homo sapiens, UniProt O60656, C3Y)
Assay: Glucuronidation by microsomes of HEK-293 cells stably expressing UGT1A9*2
Conditions: SN-38 glucuronidation, Table 5
MEASURED_ENDPOINT: Km (µM)
Report the figure in µM without appending any unit label.

Enquiry: I would be grateful if you could share the reported Km for CCc1c2c(nc3ccc(O)cc13)-c1cc3c(c(=O)n1C2)COC(=O)[C@]3(O)CC [SN-38, 7-ethyl-10-hydroxycamptothecin] .
Return: 5.15

###

Test system: human liver microsomes
Test: SN-38 glucuronidation kinetics with commercially available human liver microsomes
Type: in vitro ADME
Details: SN-38, LCQ detector
Excerpt: For the determination of Vmax and Km.
MEASURED_ENDPOINT: Km (µM)
Report the figure in µM without appending any unit label.

Enquiry: I would be grateful if you could share the reported Km for CCc1c2c(nc3ccc(O)cc13)-c1cc3c(c(=O)n1C2)COC(=O)[C@]3(O)CC [SN-38, 7-ethyl-10-hydroxycamptothecin] .
Return: 6.8

###

Biological target: human UGT1A9*3 (Homo sapiens, UniProt O60656, M33T)
Experiment: Glucuronidation by microsomes of HEK-293 cells stably expressing UGT1A9*3
Conditions: SN-38 glucuronidation, Table 5
MEASURED_ENDPOINT: Km (µM)
Report the figure in µM without appending any unit label.

Enquiry: I would be grateful if you could share the reported Km for CCc1c2c(nc3ccc(O)cc13)-c1cc3c(c(=O)n1C2)COC(=O)[C@]3(O)CC [SN-38, 7-ethyl-10-hydroxycamptothecin] .
Return: 3.21

###

Target: human UGT1A9*3 (Homo sapiens, UniProt O60656, M33T)
Sequence (O60656 26-530 M33T): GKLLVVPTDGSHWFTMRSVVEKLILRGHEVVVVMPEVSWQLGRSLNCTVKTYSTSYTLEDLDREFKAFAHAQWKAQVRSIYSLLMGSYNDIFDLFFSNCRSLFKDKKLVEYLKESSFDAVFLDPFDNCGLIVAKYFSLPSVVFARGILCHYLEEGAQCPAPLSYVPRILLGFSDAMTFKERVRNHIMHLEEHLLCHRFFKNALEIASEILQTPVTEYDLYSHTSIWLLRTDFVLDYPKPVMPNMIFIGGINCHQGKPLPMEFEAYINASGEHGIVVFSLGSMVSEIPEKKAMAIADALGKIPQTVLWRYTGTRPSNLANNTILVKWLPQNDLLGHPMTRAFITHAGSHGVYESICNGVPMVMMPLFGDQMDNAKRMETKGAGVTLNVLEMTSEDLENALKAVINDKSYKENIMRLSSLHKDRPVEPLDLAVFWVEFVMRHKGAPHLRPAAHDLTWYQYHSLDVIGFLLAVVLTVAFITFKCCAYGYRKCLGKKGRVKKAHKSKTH
Test: Glucuronidation by microsomes of HEK-293 cells stably expressing UGT1A9*3
Settings: read-out: Apparent Km; SN-38 glucuronidation, 0.1 to 200 μM, mean±SD, Lineweaver-Burk
MEASURED_ENDPOINT: Km (µM)
Report the figure in µM without appending any unit label.

Enquiry: I would be grateful if you could share the reported Km for CCc1c2c(nc3ccc(O)cc13)-c1cc3c(c(=O)n1C2)COC(=O)[C@]3(O)CC [SN-38, 7-ethyl-10-hydroxycamptothecin] .
Return: 3.21

###

Biological target: human UGT1A9*2 (Homo sapiens, UniProt O60656, C3Y)
Assay: Glucuronidation by microsomes of HEK-293 cells stably expressing UGT1A9*2
Conditions: read-out: Apparent Km; SN-38 glucuronidation, 0.1 to 200 μM, mean±SD, Lineweaver-Burk
MEASURED_ENDPOINT: Km (µM)
Report the figure in µM without appending any unit label.

Enquiry: I would be grateful if you could share the reported Km for CCc1c2c(nc3ccc(O)cc13)-c1cc3c(c(=O)n1C2)COC(=O)[C@]3(O)CC [SN-38, 7-ethyl-10-hydroxycamptothecin] .
Return: 5.15
